Experiment: Repeat-dose dose-escalation study of controlled release anagrelide: pharmacokinetics
Type: in vivo, human
Conditions: human, plasma, oral, 0.6 mg, dose-normalized to 0.2 mg; cohort 3 (0.6 mg); day 1; read-out: AUC0-τ
Reported property: AUC (ng·h/mL)
Unit ng·h/mL implied. Number only.

Exercise: For O=C1CN2Cc3c(ccc(Cl)c3Cl)N=C2N1 [anagrelide] , what is its reported AUC?
Key: 1.96

---

Experiment: Repeat-dose dose-escalation study of controlled release anagrelide: pharmacokinetics
Format: in vivo, human
Settings: human, plasma, oral, 0.6 mg, median; cohort 3 (0.6 mg); day 1
Reported property: Tmax (h)
Number only, in h; omit the unit.

Exercise: Which Tmax value belongs to O=C1CN2Cc3c(ccc(Cl)c3Cl)N=C2N1 [anagrelide] ?
Key: 4

---

Assay: Repeat-dose dose-escalation study of controlled release anagrelide: pharmacokinetics
Type: in vivo, human
Conditions: human, plasma, oral; dose-normalized to 0.2 mg; cohort 3 (0.6 mg); day 1; read-out: AUC0-t
Reported property: AUC0-t (ng·h/mL)
Report only the number, with the unit ng·h/mL understood.

Exercise: I am curious: what AUC0-t value has been reported for O=C1CN2Cc3c(ccc(Cl)c3Cl)N=C2N1 [anagrelide] ?
Key: 2.26

---

Assay: Repeat-dose dose-escalation study of controlled release anagrelide: pharmacokinetics
Type: in vivo, human
Conditions: human, plasma, oral, 0.4 mg, dose-normalized to 0.2 mg; cohort 2 (0.4 mg); day 23; read-out: Cmax
Reported property: Cmax

Exercise: What does the record list as Cmax for O=C1CN2Cc3c(ccc(Cl)c3Cl)N=C2N1 [anagrelide] ?
Key: 0.331 ng/mL

---

Assay: Repeat-dose dose-escalation study of controlled release anagrelide: pharmacokinetics
Assay type: in vivo, human
Conditions: human, plasma, oral, 0.6 mg, dose-normalized to 0.2 mg; cohort 3 (0.6 mg); day 1; read-out: AUC0-inf
Reported property: AUC0-inf
Answer as a quantity: numeral, then unit.

Exercise: Reported AUC0-inf for O=C1CN2Cc3c(ccc(Cl)c3Cl)N=C2N1 [anagrelide] : what is it?
Key: 2.74 ng·h/mL

---

Experiment: Repeat-dose dose-escalation study of controlled release anagrelide: pharmacokinetics
Assay type: in vivo, human
Details: human, plasma, oral, 0.4 mg, median; cohort 2 (0.4 mg); day 23
Reported property: Tmax
Note: a bare number is incomplete; add the unit.

Exercise: Reported Tmax for O=C1CN2Cc3c(ccc(Cl)c3Cl)N=C2N1 [anagrelide] : what is it?
Key: 3.02 h

---

Experiment: Repeat-dose dose-escalation study of controlled release anagrelide: pharmacokinetics
Format: in vivo, human
Conditions: human, plasma, oral, 0.4 mg, dose-normalized to 0.2 mg; cohort 2 (0.4 mg); day 23; read-out: AUC0-inf
Reported property: AUC0-inf
Hi, when you answer, please include the unit after the number. Thanks!

Exercise: Could you tell me which AUC0-inf is on file for O=C1CN2Cc3c(ccc(Cl)c3Cl)N=C2N1 [anagrelide] ?
Key: 3.28 ng·h/mL

---

Assay: Repeat-dose dose-escalation study of controlled release anagrelide: pharmacokinetics
Type: in vivo, human
Settings: human, plasma, oral, 0.4 mg, cohort 2 (0.4 mg); day 23
Reported property: half-life
Report the figure along with its unit, number first.

Exercise: I have this molecule here, O=C1CN2Cc3c(ccc(Cl)c3Cl)N=C2N1 [anagrelide] , and I need its recorded half-life.
Key: 15.1 h
